- Read-out: Caspase-3 (Homo sapiens) (UniProt P42574)
- Sequence (P42574 whole entry, looked up): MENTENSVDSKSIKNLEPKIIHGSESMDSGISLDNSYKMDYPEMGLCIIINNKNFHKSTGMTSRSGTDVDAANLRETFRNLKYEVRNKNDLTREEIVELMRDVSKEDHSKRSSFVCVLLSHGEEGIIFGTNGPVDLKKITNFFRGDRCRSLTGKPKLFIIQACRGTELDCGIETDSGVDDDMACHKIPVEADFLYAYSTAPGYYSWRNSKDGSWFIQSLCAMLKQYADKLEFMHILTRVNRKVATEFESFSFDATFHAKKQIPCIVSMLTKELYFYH
- test_method_notes: LTEA_HepaRG_CASP3: Life Technologies and Expression Analysis (LTEA) Assay for cysteine-aspartic acid protease (CASP3) using HepaRG (AID 2283477)
- experimental_parameters: mRNA level, 48 h; actives raise or lower the signal
Calls of active or inactive are those of the source. How the source made its calls: active means hit-call score of the fitted dose curve at least 0.9, where 1 is the maximum; inactive means score below 0.9.
Classes to choose from: active, inactive

[[record]]
smiles_string = "O=C(N[C@H]1CN2CCC1CC2)c1ccc2c(c1)OCCO2"
assigned_label = "inactive"


Dear colleague, could you share the recorded outcome for Oc1c(Cl)cc(Cl)cc1Cl when you have a moment?
inactive

Ok, now COc1ccccc1N
inactive

Ok, now OCCN(CCO)CCO
inactive
